B1: CPEB3 Ribozyme (parent)
chain: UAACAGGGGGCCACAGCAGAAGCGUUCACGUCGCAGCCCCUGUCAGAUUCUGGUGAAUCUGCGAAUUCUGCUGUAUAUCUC

variants of: B1; assay: self-cleavage, relative activity (ratio to wild type); higher = more cleavage; in vitro, sequencing
self-cleavage values, listed per item
Reply briefly: the number, and no unit.

Reference set (5 entries):
A3U A77G ... 1.04
G8A C29U ... 0.24
G53A G55C ... 1.01
A47U U54A ... 0.72
A13U U25C ... 0.28

Kindly note the recorded self-cleavage for C11G C17U , which is 0.19

Kindly note the recorded self-cleavage for U67C C81G , which is 0.16

Kindly note the recorded self-cleavage for U25G U43A , which is 0.58

Kindly note the recorded self-cleavage for C50A U76A , which is 0.65

Entry source: the RNAGym collection of RNA variant scans (doi:10.1093/nar/gkz1192)
